pKi: −log10 of the molar value.
Literature survey of pKi (system: Muscarinic acetylcholine receptor M2 (Homo sapiens, UniProt P08172)).
Sequence (P08172 whole entry): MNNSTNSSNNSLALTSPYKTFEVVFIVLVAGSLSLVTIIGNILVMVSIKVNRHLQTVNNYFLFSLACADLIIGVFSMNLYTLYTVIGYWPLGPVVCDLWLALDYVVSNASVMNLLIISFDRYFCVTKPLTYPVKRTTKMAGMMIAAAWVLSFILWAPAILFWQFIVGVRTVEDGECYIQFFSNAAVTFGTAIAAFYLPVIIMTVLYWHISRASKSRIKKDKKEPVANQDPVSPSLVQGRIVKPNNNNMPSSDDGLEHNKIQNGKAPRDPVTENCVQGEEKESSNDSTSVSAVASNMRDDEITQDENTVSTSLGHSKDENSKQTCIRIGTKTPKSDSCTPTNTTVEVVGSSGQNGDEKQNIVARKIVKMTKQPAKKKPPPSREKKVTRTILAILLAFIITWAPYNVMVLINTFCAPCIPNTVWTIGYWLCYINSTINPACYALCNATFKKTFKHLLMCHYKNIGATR

Would you kindly share the measured pKi for O=c1cc(O)cc2oc(-c3ccc(O)c(O)c3)c(OC3OC(CO)C(O)C(O)C3O)c(O)c1-2 (centres undefined) ?
< 5.00

For the molecule "N[C@H](CS(=O)(=O)O)C(=O)O" , what pKi is on record?
< 5.00

May I ask what pKi has been recorded for "N[C@@H](CS)C(=O)O" ?
< 5.00

Item "CNCCC=C1c2ccccc2CCc2ccccc21" has what recorded pKi?
7.43

Need pKi of NC(CSSCC(N)C(=O)O)C(=O)O (centres undefined) , thanks.
< 5.00

Which pKi is listed for "Cc1n(CC#CCOC2=NOCC2)cc[n+]1C" ?
7.03

May I ask what pKi has been recorded for "CSCC[C@@H](N)C(=O)O" ?
< 5.00

Sample NC(CS(=O)O)C(=O)O (centres undefined) — what was its pKi?
< 5.00

Which pKi reading was recorded for the molecule "CN(C)CCON=C(C=Cc1ccc(O)cc1)c1ccccc1F" ?
< 5.00
